Values compiled from patent US12528768B2.

# test-name: Water sorption isotherms using Dynamic Vapor Sorption (DVS)
# Type: physicochemical
# test-settings: DVS sorption step, target RH 80%, 25° C.
readout: Change in Mass (%)

O=C(O)c1ccc2c(c1)CCCC(c1ccc(Cl)cc1Cl)=C2c1ccc(O[C@H]2CCN(CCCF)C2)cc1 [anhydrate crystalline Form 3] : 2.73

(A) O=C(O)c1ccc2c(c1)CCCC(c1ccc(Cl)cc1Cl)=C2c1ccc(O[C@H]2CCN(CCCF)C2)cc1 [anhydrate crystalline Form 1]
(B) O=C(O)c1ccc2c(c1)CCCC(c1ccc(Cl)cc1Cl)=C2c1ccc(O[C@H]2CCN(CCCF)C2)cc1 [anhydrate crystalline Form 2]
(C) O=C(O)c1ccc2c(c1)CCCC(c1ccc(Cl)cc1Cl)=C2c1ccc(O[C@H]2CCN(CCCF)C2)cc1 [anhydrate crystalline Form 4]
Put the items in sequence by Change in Mass, from largest down. // rank by listing labels in the order requested
A, C, B
(A: 3.36%, C: 0.71%, B: 0.05%)
